Listing of recorded self-cleavage by entry.
B1: CPEB3 Ribozyme (parent)
chain: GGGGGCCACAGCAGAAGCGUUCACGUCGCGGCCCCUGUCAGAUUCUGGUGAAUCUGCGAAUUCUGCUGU

variants of: B1; experiment: self-cleavage, relative activity (ratio to wild type); higher = more cleavage; co-transcriptional

# annotated cases, reported self-cleavage shown
mut: A13G C18U
recorded value: 0.382

mut: U38C G50U
recorded value: 0.952

mut: C39U G56U
recorded value: 0.922

mut: G3C U44C
recorded value: 0.132

Query :: Give self-cleavage for the following variant: U55A G68C
Result :: 1.01

Query :: Give self-cleavage for the following variant: G37A G50A
Result :: 0.304
